Tested on: DU-145 prostate
EXPERIMENTAL PROTOCOL: NCI-60 one-dose screen, 48 h (100 = growth as untreated, 0 = no growth, -100 = all killed)
TEST PARAMETERS: 10 µM unless noted
Compounds without any hit were thinned out: in the full panel of roughly 83,000, 20% have a hit.
PROPERTY NAME: growth (%)
# unit: % | format: bare number

molecule="CC1CN1CCCCN1CC1C (stereo not drawn)" meas_value=105
molecule="CCC1CN1CCCCN1CC1CC (stereo not drawn)" meas_value=108
molecule=COc1cc([C@@H]2c3cc4c(cc3[C@H](OC(C)=O)[C@H]3COC(=O)[C@@H]23)OCO4)cc(OC)c1OC meas_value=3.27

In: Answer with the recorded growth for the molecule listed here: COC(=O)[C@@H](C)C[C@H](Cc1ccccc1)NC(=O)c1csc([C@@H](C[C@H](C(C)C)N(C)C(=O)[C@@H](NC(=O)CN(C)C)C2CC2)OC(C)=O)n1
Out: 3.44

In: Answer with the recorded growth for the molecule listed here: COC1CC2c3ccccc3C1C(C)=[N+]2C (stereo not drawn)
Out: 110

----------
Test system: ACHN renal
EXPERIMENTAL PROTOCOL: NCI-60 one-dose screen, 48 h
TEST PARAMETERS: 10 µM unless noted
The panel holds about 83,000 compounds, 20% with a hit somewhere; the sample as a whole holds those more often. Activity calls are given as the source filed them. Rule for the calls: active = growth percent below 10; inactive = the rest.
Could you please pick one outcome from this set? active, inactive

Example entries and their recorded answers appear below.
compound="CNC12C3C4C1C1C2C3C41C(=O)N[C@H](C(=O)N(C)[C@H](C[C@@H](OC(C)=O)c1nc(C(=O)N[C@@H](Cc2ccccc2)C[C@H](C)C(=O)OC)cs1)C(C)C)C1CC1 (stereo partly drawn)" group_label=inactive
compound=ClCCN(CCCl)Cc1ccc(Nc2ccnc3cc(Cl)ccc23)cc1 group_label=active
compound=Clc1cccc(NCOOC2(OOCNc3cccc(Cl)c3)CCCCCC2)c1 group_label=inactive
compound=CC(=O)O[C@H]1C(=O)[C@@]2(C)[C@H]([C@H](OC(=O)c3ccccc3)[C@]3(O)C[C@H](OC(=O)[C@H](OC(=O)OC[C@@H]4COC(C)(C)O4)[C@@H](NC(=O)c4ccccc4)c4ccccc4)C(C)=C1C3(C)C)[C@]1(OC(C)=O)CO[C@@H]1C[C@@H]2O group_label=inactive
compound=CCOc1ccc(/C=C/[N+](=O)[O-])cc1 group_label=inactive

In: Given CC(=O)C(c1c(O)c2ccccc2oc1=O)c1cc(=O)oc2c1ccc1ccccc12 (stereo not drawn) , state the outcome it received in this test.
Out: inactive

----------
Test system: EKVX NSCLC
EXPERIMENTAL PROTOCOL: NCI-60 one-dose screen, 48 h (100 = growth as untreated, 0 = no growth, -100 = all killed)
TEST PARAMETERS: 10 µM unless noted
This is part of a sample that, as a whole, favours compounds with a hit. Of some 83,000 tested, about 20% had one in any assay.
PROPERTY NAME: growth (%)
# unit: % | format: bare number

These solved cases illustrate the format of a correct answer.
compound=O=C(Nc1ccc(O)cc1)C(Cl)(Cl)Cl assay_system="EKVX NSCLC" property_name=growth meas_value=98.6
compound=O=P(Oc1ccc(Cl)cc1)(N1CC1)N1CC1 assay_system="EKVX NSCLC" property_name=growth meas_value=101
compound=COc1ccc(/C=C\c2cc(OC)c(OC)c(OC)c2)cc1NC(=O)/C=C/c1ccc(OC)c(OC)c1 assay_system="EKVX NSCLC" property_name=growth meas_value=55.1
compound="CC(=O)O[C@H]1C(=O)[C@@]2(C)[C@H]([C@H](OC(=O)c3ccccc3)[C@]3(O)C[C@H](OC(=O)[C@H](OC(=O)OCC4COC(C)(C)O4)[C@@H](NC(=O)c4ccccc4)c4ccccc4)C(C)=C1C3(C)C)[C@]1(OC(C)=O)CO[C@@H]1C[C@@H]2O (some centres undefined)" assay_system="EKVX NSCLC" property_name=growth meas_value=70.8
compound=CCCCN(CCCC)P(=O)(Oc1ccccc1)Oc1ccccc1 assay_system="EKVX NSCLC" property_name=growth meas_value=59
compound=O=c1[nH]c2ccc([N+](=O)[O-])cc2c(=O)o1 assay_system="EKVX NSCLC" property_name=growth meas_value=107
compound=O=C(N/N=C/c1ccc(N(CCCl)CCCl)cc1)c1cccc2ccccc12 assay_system="EKVX NSCLC" property_name=growth meas_value=85.2
compound="CCCCCN(CCCCC)CC(O)c1cc(Cl)ccc1OC (centres undefined)" assay_system="EKVX NSCLC" property_name=growth meas_value=52.4

Now turn to the next compound.
In: Answer with the recorded growth for the compound listed here: Cc1c(NS(=O)(=O)c2ccccc2)ccc([N+](=O)[O-])c1Cl
Out: 65.3
